B1: LINE1-full (parent)
chain: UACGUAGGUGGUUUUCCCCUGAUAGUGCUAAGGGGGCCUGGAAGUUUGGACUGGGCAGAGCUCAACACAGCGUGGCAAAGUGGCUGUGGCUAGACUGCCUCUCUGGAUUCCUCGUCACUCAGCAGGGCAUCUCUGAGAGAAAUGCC

# Variants of: B1
# Assay Name: self-cleavage, relative activity (ratio to wild type); higher = more cleavage; in vitro, sequencing; the parent is a self-cleaving ribozyme
Entry class follows self-cleavage: bottom range (below 0.5), center range (0.5 to below 1), top range (1 or more)

>>> qualitative_label("A59U G127A")
"center range"
>>> qualitative_label("U29C A43U")
"top range"
>>> qualitative_label("A31U U73C")
"top range"
>>> qualitative_label("U1C U109C")
"bottom range"
>>> qualitative_label("U45G U112C")
"top range"
>>> qualitative_label("A65U U87A")
"bottom range"
>>> qualitative_label("U15C C68U")
"bottom range"
>>> qualitative_label("A138G C146U")
"top range"
>>> qualitative_label("G83A G127A")
"center range"
>>> qualitative_label("A64G G97C")
"bottom range"
>>> qualitative_label("U112C A129G")
"top range"
>>> qualitative_label("A30G A117U")
"top range"
>>> qualitative_label("A30U U102C")
"center range"
>>> qualitative_label("A30G U87C")
"bottom range"
>>> qualitative_label("U52A G127A")
"top range"
>>> qualitative_label("A59G A107U")
"bottom range"
>>> qualitative_label("A117U A140G")
"top range"
>>> qualitative_label("A136C U143A")
"top range"
>>> qualitative_label("U87C A94U")
"bottom range"
>>> qualitative_label("U5C A129G")
"top range"
>>> qualitative_label("A107G A140U")
"center range"
>>> qualitative_label("C3A U45G")
"bottom range"
>>> qualitative_label("C63A U104C")
"bottom range"
>>> qualitative_label("A64C A141G")
"bottom range"
>>> qualitative_label("U52A U108C")
"top range"
>>> qualitative_label("C16U A136U")
"top range"
>>> qualitative_label("U9G A117G")
"top range"
>>> qualitative_label("C16A A121G")
"center range"
>>> qualitative_label("U62A A141G")
"bottom range"
>>> qualitative_label("A107G U115A")
"center range"
>>> qualitative_label("U81C A140U")
"top range"
>>> qualitative_label("C16U A77U")
"top range"
>>> qualitative_label("A43G A142G")
"top range"
>>> qualitative_label("G44A")
"top range"
>>> qualitative_label("U130A G137A")
"top range"
>>> qualitative_label("G41U A94G")
"bottom range"
>>> qualitative_label("A69G U108C")
"center range"
>>> qualitative_label("U45C U47C")
"top range"
>>> qualitative_label("U15C A31U")
"center range"
>>> qualitative_label("A59C A77U")
"center range"
>>> qualitative_label("G105A A117U")
"top range"
>>> qualitative_label("U12C A129U")
"top range"
>>> qualitative_label("G21A U85C")
"bottom range"
>>> qualitative_label("U52C A57G")
"bottom range"
>>> qualitative_label("U14A G34A")
"center range"
>>> qualitative_label("C110U U112C")
"top range"
>>> qualitative_label("A57U U81A")
"bottom range"
>>> qualitative_label("U9C U85C")
"bottom range"
>>> qualitative_label("A6G U130C")
"center range"
>>> qualitative_label("A24U U62A")
"bottom range"
>>> qualitative_label("C110G A141G")
"top range"
>>> qualitative_label("U96A A107G")
"bottom range"
>>> qualitative_label("U46C A57U")
"bottom range"
>>> qualitative_label("A30U G33A")
"top range"
>>> qualitative_label("U104C A136G")
"top range"
>>> qualitative_label("U1C U52A")
"center range"
>>> qualitative_label("G89A A121G")
"bottom range"
>>> qualitative_label("U1G A42U")
"bottom range"
>>> qualitative_label("U29C A69G")
"center range"
>>> qualitative_label("U29G U115C")
"center range"
>>> qualitative_label("A124G U143C")
"center range"
>>> qualitative_label("A30G G126C")
"top range"
>>> qualitative_label("U15C U143C")
"top range"
>>> qualitative_label("G27U G82A")
"top range"
>>> qualitative_label("U29C U87A")
"bottom range"
>>> qualitative_label("A67U A92G")
"bottom range"
>>> qualitative_label("U73A A142U")
"top range"
>>> qualitative_label("G4A G54A")
"center range"
>>> qualitative_label("U20C G93A")
"bottom range"
>>> qualitative_label("G106A U134G")
"top range"
>>> qualitative_label("U20A G126A")
"top range"
>>> qualitative_label("A92U U96C")
"bottom range"
>>> qualitative_label("U47C G86U")
"bottom range"
>>> qualitative_label("A31G A50G")
"top range"
>>> qualitative_label("A67G A69U")
"bottom range"
>>> qualitative_label("G7A A94U")
"bottom range"
>>> qualitative_label("C66U U91A")
"bottom range"
>>> qualitative_label("A30U A129G")
"center range"
>>> qualitative_label("U29C A79G")
"top range"
>>> qualitative_label("U15C A69G")
"bottom range"
>>> qualitative_label("C51U A142G")
"top range"
>>> qualitative_label("A92U A129U")
"center range"
>>> qualitative_label("U47A A50G")
"top range"
>>> qualitative_label("U20A G36A")
"center range"
>>> qualitative_label("U15C U119A")
"top range"
>>> qualitative_label("U102C A136G")
"top range"

Reference source: the RNAGym collection of RNA variant scans (doi:10.7554/elife.90254)
